# Target or test system: ComR T90A (ComR-StreptagII mutant) (Streptococcus thermophilus LMD-9)
# Experiment summary: ITC; peptide 500 μM in the syringe, ComR 50 μM in the cell; 20°C; 20 mM Tris-HCl pH 8.0, 150 mM NaCl, 1 mM EDTA; one-binding-site model; apparent KD (peptide binding and dimerization not told apart)
Observable: Kd (nM)
Numeric only. Scale: nM

Query LPYFAGCL [XIP octapeptide (ComS 17-24, LPYFAGCL) from Streptococcus thermophilus LMD-9] yields Kd of 244
